The values you see were collected from the supplement of paper PMC10567573.

B1: KRT13 (parent)
chain: YGGGLGGGFGGGFAGGFVDFGACD

variants of: B1; test: protein stability index of a GFP-peptide fusion (GPS, HEK-293T) (PSI 1-6); higher = more stable; settings: c terminus: a fixed tail appended;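 also: lentivirally expressed fusions sorted by FACS into six bins by GFP to DsRed ratio, PSI derived from sequencing read proportions per bin multiplied by bin number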
valueType: protein stability index
# respond with the number and nothing more

Worked set:
> print(dat)
                 constructsequence  measuredvalue
1   YGGGLGGGYGGGFAGGFVDFGACD [F9Y]           1.69
2  YGGGLGGGFSGGFAGGFVDFGACD [G10S]           2.15
3  YGGGLGGGFGGGFAGGFVDFGADD [C23D]           1.31
4  YGGGLGGGFGGGFAYGFVDFGACD [G15Y]           1.67
5   YGGSLGGGFGGGFAGGFVDFGACD [G4S]           2.42

// below: protein stability index requested for another variant
Problem: Let me know recorded protein stability index for YGGGLGGGFPGGFAGGFVDFGACD [G10P] , thanks.
Result: 1.92
